System: Plasmodium falciparum
Assay: Antimicrobial activity against Plasmodium falciparum harboring mdr1 N86Y/D1246Y/Y184F mutant gene by ELISA
Format: functional, organism-based
Entries and their measured IC50 follow.
The response must be a number in nM with no trailing unit.

C=C[C@H]1CN2CC[C@H]1C[C@H]2[C@H](O)c1ccnc2ccc(OC)cc12 [QUININE]: 15.4
CCNCc1cc(Nc2ccnc3cc(Cl)ccc23)ccc1O [DESETHYL AMODIAQUINE]: 6.3
Clc1ccc2c(N3CCN(CCCN4CCN(c5ccnc6cc(Cl)ccc56)CC4)CC3)ccnc2c1 [PIPERAQUINE]: 1.6

Now examine the next entry.
Measured IC50 of CCCCN(CCCC)CC(O)c1cc(Cl)cc2c1-c1ccc(Cl)cc1/C2=C/c1ccc(Cl)cc1 (centres undefined) [LUMEFANTRINE] : 0.19
